Where a SMILES comes first, the peptide text is derived from it. [ ]: non-standard residue; d: D form. The star is where a group is joined. NH(CH2)3NH(1-anthraquinonyl) = O=C1c2ccccc2C(=O)c2c(NCCCN*)cccc21; Nva = CCC[C@H](N)C(=O)O

molecule	melting point, °C
CCC[C@H](NC(=O)[C@H](Cc1ccc(O)cc1)NC(=O)[C@H](C)NC(=O)[C@@H](C)N)C(=O)NCC(=O)N[C@@H](CC(C)C)C(=O)N1CCC[C@H]1C(=O)NCCCNc1cccc2c1C(=O)c1ccccc1C2=O.O=C(O)C(F)(F)F	190
CCC[C@H](N)C(=O)N[C@@H](CC(C)C)C(=O)NCC(=O)N[C@@H](CC(C)C)C(=O)N1CCC[C@H]1C(=O)NCCCNc1cccc2c1C(=O)c1ccccc1C2=O.O=C(O)C(F)(F)F (H-[Nva]LGLP-{NH(CH2)3NH(1-anthraquinonyl)})	189
CCC[C@H](NC(=O)[C@H](C)N)C(=O)N[C@@H](CC(C)C)C(=O)NCC(=O)N[C@@H](CC(C)C)C(=O)N1CCC[C@H]1C(=O)NCCCNc1cccc2c1C(=O)c1ccccc1C2=O.O=C(O)C(F)(F)F (H-A[Nva]LGLP-{NH(CH2)3NH(1-anthraquinonyl)})	192
CC(C)C[C@H](NC(=O)[C@H](C)NC(=O)[C@H](C)NC(=O)[C@H](N)CCCCN)C(=O)NCC(=O)N[C@@H](CC(C)C)C(=O)N1CCC[C@H]1C(=O)NCCCNc1cccc2c1C(=O)c1ccccc1C2=O.O=C(O)C(F)(F)F.O=C(O)C(F)(F)F	196

====

smiles notation	melting point
NCCCNc1cccc2c1C(=O)c1ccccc1C2=O	196 °C
CCC[C@H](NC(=O)CNC(=O)[C@H](CC(C)C)NC(=O)[C@H](C)NC(=O)[C@H](C)NC(=O)[C@@H](C)N)C(=O)N1CCC[C@H]1C(=O)NCCCNc1cccc2c1C(=O)c1ccccc1C2=O.O=C(O)C(F)(F)F	192 to 196 °C
CC(C)C[C@H](NC(=O)[C@H](C)NC(=O)[C@H](C)N)C(=O)NCC(=O)N[C@@H](CC(C)C)C(=O)N1CCC[C@H]1C(=O)NCCCNc1cccc2c1C(=O)c1ccccc1C2=O.O=C(O)C(F)(F)F	132 °C
CC[C@H](C)[C@H](N)C(=O)NCC(=O)N[C@@H](Cc1ccccc1)C(=O)N1CCC[C@H]1C(=O)NCCCNc1cccc2c1C(=O)c1ccccc1C2=O.O=C(O)C(F)(F)F	122 to 124 °C
CSC[C@H](NC(=O)[C@H](Cc1ccc(O)cc1)NC(=O)[C@H](C)NC(=O)[C@@H](C)N)C(=O)NCC(=O)N[C@@H](CC(C)C)C(=O)N1CCC[C@H]1C(=O)NCCCNc1cccc2c1C(=O)c1ccccc1C2=O.O=C(O)C(F)(F)F	195 °C

====

Where a SMILES comes first, the peptide text is derived from it. [ ]: non-standard residue; d: D form. The star is where a group is joined. NH(CH2)3NH(1-anthraquinonyl) = O=C1c2ccccc2C(=O)c2c(NCCCN*)cccc21; Nle = CCCC[C@H](N)C(=O)O; Nva = CCC[C@H](N)C(=O)O
readout label: melting point (°C)

compound	val
CC(C)C[C@H](NC(=O)[C@H](Cc1ccc(O)cc1)NC(=O)[C@H](C)N)C(=O)NCC(=O)N[C@@H](CC(C)C)C(=O)N1CCC[C@H]1C(=O)NCCCNc1cccc2c1C(=O)c1ccccc1C2=O.O=C(O)C(F)(F)F (H-AYLGLP-{NH(CH2)3NH(1-anthraquinonyl)})	182
CCC[C@H](NC(=O)CNC(=O)[C@H](CC(C)C)NC(=O)[C@H](C)NC(=O)[C@H](C)N)C(=O)N1CCC[C@H]1C(=O)NCCCNc1cccc2c1C(=O)c1ccccc1C2=O.O=C(O)C(F)(F)F (H-AALG[Nva]P-{NH(CH2)3NH(1-anthraquinonyl)})	188
CCCC[C@H](N)C(=O)NCC(=O)N[C@@H](CC(C)C)C(=O)N1CCC[C@H]1C(=O)NCCCNc1cccc2c1C(=O)c1ccccc1C2=O.O=C(O)C(F)(F)F (H-[Nle]GLP-{NH(CH2)3NH(1-anthraquinonyl)})	169
CSC[C@H](NC(=O)[C@H](C)NC(=O)[C@H](C)N)C(=O)NCC(=O)N[C@@H](CC(C)C)C(=O)N1CCC[C@H]1C(=O)NCCCNc1cccc2c1C(=O)c1ccccc1C2=O.O=C(O)C(F)(F)F (H-AAC(Me)GLP-{NH(CH2)3NH(1-anthraquinonyl)})	162
NCC(=O)N[C@@H](Cc1ccccc1)C(=O)N1CCC[C@H]1C(=O)NCCCNc1cccc2c1C(=O)c1ccccc1C2=O.O=C(O)C(F)(F)F	129
CCCC[C@H](NC(=O)[C@H](C)NC(=O)[C@H](C)NC(=O)[C@@H](C)N)C(=O)NCC(=O)N[C@@H](CC(C)C)C(=O)N1CCC[C@H]1C(=O)NCCCNc1cccc2c1C(=O)c1ccccc1C2=O.O=C(O)C(F)(F)F	192
O=C(O)C(F)(F)F.O=C1c2ccccc2C(=O)c2c(NCCCNC(=O)[C@H]3CCCN3)cccc21	177
CC(C)C[C@H](NC(=O)CNC(=O)[C@H](C)N)C(=O)N[C@@H](C)C(=O)N[C@@H](CC(C)C)C(=O)N1CCC[C@H]1C(=O)NCCCNc1cccc2c1C(=O)c1ccccc1C2=O.O=C(O)C(F)(F)F (H-AGLALP-{NH(CH2)3NH(1-anthraquinonyl)})	185
CCC[C@H](NC(=O)[C@H](Cc1ccc(O)cc1)NC(=O)[C@H](C)N)C(=O)NCC(=O)N[C@@H](CC(C)C)C(=O)N1CCC[C@H]1C(=O)NCCCNc1cccc2c1C(=O)c1ccccc1C2=O.O=C(O)C(F)(F)F (H-AY[Nva]GLP-{NH(CH2)3NH(1-anthraquinonyl)})	182

====

Where a SMILES comes first, the peptide text is derived from it. [ ]: non-standard residue; d: D form. The star is where a group is joined. NH(CH2)3NH(1-anthraquinonyl) = O=C1c2ccccc2C(=O)c2c(NCCCN*)cccc21; Nva = CCC[C@H](N)C(=O)O; Mob = COc1ccc(C*)cc1
Each record here notes measured melting point.
readout label: melting point (°C)

compound	units of measure	val
COc1ccc(CSC[C@H](NC(=O)[C@H](C)NC(=O)[C@H](C)N)C(=O)NCC(=O)N[C@@H](CC(C)C)C(=O)N2CCC[C@H]2C(=O)NCCCNc2cccc3c2C(=O)c2ccccc2C3=O)cc1.O=C(O)C(F)(F)F (H-AAC(Mob)GLP-{NH(CH2)3NH(1-anthraquinonyl)})	°C	182
CCC[C@H](NC(=O)[C@H](C)NC(=O)[C@H](C)N)C(=O)NCC(=O)N[C@@H](CC(C)C)C(=O)N1CCC[C@H]1C(=O)NCCCNc1cccc2c1C(=O)c1ccccc1C2=O.O=C(O)C(F)(F)F (H-AA[Nva]GLP-{NH(CH2)3NH(1-anthraquinonyl)})	°C	197
CC(C)C[C@H](NC(=O)[C@H](C)N)C(=O)NCC(=O)N[C@@H](CC(C)C)C(=O)N1CCC[C@H]1C(=O)NCCCNc1cccc2c1C(=O)c1ccccc1C2=O.O=C(O)C(F)(F)F	°C	168

====

Where a SMILES comes first, the peptide text is derived from it. [ ]: non-standard residue; d: D form. The star is where a group is joined. NH(CH2)3NH(1-anthraquinonyl) = O=C1c2ccccc2C(=O)c2c(NCCCN*)cccc21; Nle = CCCC[C@H](N)C(=O)O

compound	melting point / °C
CCCC[C@H](NC(=O)[C@H](C)N)C(=O)NCC(=O)N[C@@H](CC(C)C)C(=O)N1CCC[C@H]1C(=O)NCCCNc1cccc2c1C(=O)c1ccccc1C2=O.O=C(O)C(F)(F)F (H-A[Nle]GLP-{NH(CH2)3NH(1-anthraquinonyl)})	185
CC(C)C[C@H](NC(=O)CNC(=O)[C@H](C)NC(=O)[C@@H](C)N)C(=O)N[C@@H](C)C(=O)N[C@@H](CC(C)C)C(=O)N1CCC[C@H]1C(=O)NCCCNc1cccc2c1C(=O)c1ccccc1C2=O.O=C(O)C(F)(F)F	192

====

Where a SMILES comes first, the peptide text is derived from it. [ ]: non-standard residue; d: D form. The star is where a group is joined. NH(CH2)3NH(1-anthraquinonyl) = O=C1c2ccccc2C(=O)c2c(NCCCN*)cccc21
Each entry below lists one item and its recorded melting point value.
readout label: melting point

compound	val
CC(C)C[C@H](NC(=O)[C@H](C)NC(=O)[C@H](C)NC(=O)[C@@H](C)N)C(=O)NCC(=O)N[C@@H](CC(C)C)C(=O)N1CCC[C@H]1C(=O)NCCCNc1cccc2c1C(=O)c1ccccc1C2=O.O=C(O)C(F)(F)F [Example 8] (H-[dA]AALGLP-{NH(CH2)3NH(1-anthraquinonyl)})	166 °C
CC(C)C[C@H](NC(=O)CNC(=O)[C@H](C)N)C(=O)N[C@@H](Cc1ccccc1)C(=O)N[C@@H](CC(C)C)C(=O)N1CCC[C@H]1C(=O)NCCCNc1cccc2c1C(=O)c1ccccc1C2=O.O=C(O)C(F)(F)F (H-AGLFLP-{NH(CH2)3NH(1-anthraquinonyl)})	186 °C
